Provide the recorded SS (%): ssDNA recombination compared to WT for the entries that follow.
- System: GB2005 E. coli cells
- TEST_PROTOCOL: ssDNA recombination assay
- Assay type: cell-based
- MEASUREMENT_CONTEXT: % of WT colonies per 10^8 viable cells
All answers are understood in %, so give the number only.

Input: Specify SS (%): ssDNA recombination compared to WT for Q252A Redβ: Redβ variant (protein) MSTALATLAGKLAERVGMDSVDPQELITTLRQTAFKGDASDAQFIALLIVANQYGLNPWTKEIYAFPDKQNGIVPVVGVDGWSRIINENQQFDGMDFEQDNESCTCRIYRKDRNHPICVTEWMDECRREPFKTREGREITGPWQSHPKRMLRHKAMIQCARLAFGFAGIYDKDEAERIVENTAYTAERQPERDITPVNDETMQEINTLLIALDKTWDDDLLPLCSQIFRRDIRASSELTQAEAVKALGFLKAKAAEQKVAA and stop.
Output: 101

Input: Give recorded SS (%): ssDNA recombination compared to WT. F94A λexo (protein, left off: His6, N-terminal, kept) MTPDIILQRTGIDVRAVEQGDDAWHKLRLGVITASEVHNVIAKPRSGKKWPDMKMSYFHTLLAEVCTGVAPEVNAKALAWGKQYENDARTLFEATSGVNVTESPIIYRDESMRTACSPDGLCSDGNGLELKCPFTSRDFMKFRLGGFEAIKSAYMAQVQYSMWVTRKNAWYFANYDPRMKREGLHYVVIERDEKYMASFDEIVPEFIEKMDEALAEIGFVFGEQWR
Output: 183
